measurementType: melting point

- compound: "CCn1cc(C(=O)O)c(=O)c2cc(F)c(N3CCC(CN)C3)nc21 (stereo unspecified)"
  reportedValue: "217 to 218 °C"
- compound: "Cc1ccc(Cl)c(Nc2ccccc2C(=O)CS(C)=O)c1Cl (stereo unspecified)"
  reportedValue: "152 to 154 °C"
- compound: "COc1cc2c(c(OC)c1OC)C(=O)O[C@H]2CO"
  reportedValue: "178 to 180 °C"
- compound: "CCCCc1ccc(CNC(=O)OC(C)(C)C)c(=O)n1Cc1ccc(-c2ccccc2-c2nnn[nH]2)cc1"
  reportedValue: "105 °C"
- compound: "CCOc1nc(C)ccc1C#N"
  reportedValue: "90 to 92 °C"
- compound: "O=c1cccccc1N1CCN(c2cccccc2=O)CC1"
  reportedValue: "184 to 186 °C"
- compound: "CC1(C)OC(=O)Nc2ccc(-c3ccc(CC#N)c(F)c3)cc21"
  reportedValue: "253 to 256 °C"
- compound: "ONCC1CCCCC1"
  reportedValue: "61 to 63 °C"
- compound: "O=c1[nH]c2ccccc2n2cc(-c3ccccc3)cc12"
  reportedValue: "301 to 303 °C"
- compound: "CC(Sc1nc(N)cc(Cl)n1)c1cc2ccccc2cn1 (stereo unspecified)"
  reportedValue: "179 to 180 °C"
- compound: "O=C1c2cccc(NC(=S)Nc3cc[nH]n3)c2C2CC3(CCN12)SCCS3 (stereo unspecified)"
  reportedValue: "185 °C"

====

Reported melting point values for the following molecules.

- molecule: "CCCCCCCCCCCCCCNC(=O)c1cc(N)cc(C(=O)NCCCCCCCCCCCCCC)c1"
  melting point: "171 to 178 °C"
- molecule: "COc1ccc(-c2nc3n(c2-c2ccncc2)CCC3)cc1"
  melting point: "158 °C"
- molecule: "Cc1sc2c(Br)c3ccccc3c(-c3cc(Br)c(O)c(C(C)C)c3)c2c1C"
  melting point: "157 to 162 °C"
- molecule: "CC(C)=CCNC(=O)N1CC(Oc2cccc(C(F)(F)F)c2)C1"
  melting point: "143 to 144 °C"
- molecule: "Cc1cc2c(cc1N(C)C=O)N1CCN=C1S2"
  melting point: "164 °C"
- molecule: "O=C(O)c1cc([N+](=O)[O-])ccc1-c1ccc([N+](=O)[O-])cc1C(=O)O"
  melting point: "255 to 258 °C"
- molecule: "Cn1c(=O)c2c(-c3nc(C4CC4)no3)ncn2c2ccccc21"
  melting point: "184 to 190 °C"
- molecule: "O=C(Nc1cc[nH]n1)c1c(F)cccc1F"
  melting point: "201 to 204 °C"
- molecule: "Cc1cc(=O)c2cc(NC(=O)C(=O)O)ccc2s1"
  melting point: "238 to 240 °C"
- molecule: "Cc1ccccc1-n1nc(-c2cccc(C(=O)O)c2)[nH]c1=O"
  melting point: "> 310 °C"
- molecule: "Clc1ccc(CC2(c3ccccc3)OCC(CN3CCCCC3)O2)cc1 (stereo unspecified)"
  melting point: "58 °C"

====

Reported melting point values for the following compounds.

- compound: "COc1ccc(F)cc1OCCN1C(=O)c2ccccc2C1=O"
  melting point: "134 to 136 °C"
- compound: "N#Cc1cc(CCNc2ncnc3c(F)ccc(F)c23)ccc1Oc1cc(C(F)(F)F)ccn1"
  melting point: "157 to 159 °C"
- compound: "Cc1cc(-c2ccc(NC(=O)CCN3CCC(c4ccccc4)CC3)cc2)n[nH]c1=O"
  melting point: "239 to 240 °C"
- compound: "CC(=O)Nc1cc(Cl)ccc1OCC#N"
  melting point: "146 to 149 °C"
- compound: "COc1cc(O)c(C(=O)C=Cc2ccc(N(C)C)cc2)c(OC)c1"
  melting point: "197 °C"
- compound: "Cc1ccc(S(=O)(=O)Oc2ccc(Cl)c3c2C(=O)c2cnccc2C3=O)cc1"
  melting point: "193 to 195 °C"
- compound: "CCN(CC1CCN(C(N)=O)CC1)C(C)Cc1ccc(OC)cc1 (stereo not given)"
  melting point: "104 to 110 °C"
- compound: "Cc1cc(Cl)nc(SCC#N)n1"
  melting point: "62 to 65 °C"
- compound: "COC(=O)c1ccc(NS(=O)(=O)c2sc3ccc(F)cc3c2C)c(S(C)(=O)=O)c1"
  melting point: "202 to 204 °C"
- compound: "CNc1nc(SC)ncc1Cl"
  melting point: "241 °C"
